Reported Inhibition rate (%) by item:
target.or.system: FAM19A5 protein (Homo sapiens, UniProt Q7Z5A7)
measurement.protocol: competitive inhibition ELISA, 20 nM peptide, rFAM19A5 1 ng/mL; competitor: coated LRRC4B(453-576)-hFc
Dear colleague, please return just the value in %, with no unit written.

                       binder  reported_measurement
0     KNYTYFTTNKETQ [FB-m6dC]                   5.5
1  KNYTYFTTVTVNKETQ [FB-m9dC]                   2.7

We now examine a further binder.
What measured Inhibition rate (%) goes with KNFTTVTVETNKETQ [FB-m8dN] ? -1.1
